Each entry below lists one item and its recorded TGI value.
Test system: BT-549 breast
PROTOCOL NOTES: NCI tumour cell line growth inhibition, 48 h
Where a SMILES comes first, the peptide text is derived from it. [ ]: non-standard residue; d: D form. ξ: configuration not given here. ξLac(3-iPr) = CC(C)CC(O)C(=O)O; NMeV = CN[CH](C(=O)O)C(C)C; NMeA = CN[CH](C)C(=O)O; βAla = NCCC(=O)O
OBSERVED PROPERTY: TGI

MOLECULE	OBSERVED PROPERTY	OBS VALUE
CCC(C)C1NC(=O)C2CCCN2C(=O)C(CC(C)C)OC(=O)CCNC(=O)C(C)N(C)C(=O)C(C(C)C)N(C)C1=O (configuration not stated) (cyclo([ξLac(3-iPr)]PI[NMeV][NMeA][βAla]); configuration not given here)	TGI	> 100 µM
CC(=O)O[C@@]12CO[C@@H]1C[C@@H](O)[C@@]1(C)C(=O)[C@H](O)C3=C(C)[C@@H](OC(=O)[C@H](O)[C@@H](NC(=O)c4ccccc4)c4ccccc4)C[C@@](O)([C@@H](OC(=O)c4ccccc4)C12)C3(C)C (some centres not stated)	TGI	> 100 µM
CC(=O)c1ccc2c(c1)CC1(C2)Cc2ccc3c(c2C1=O)CCC3 (configuration not stated)	TGI	> 100 µM
O=C1c2ccccc2C2C1C(c1ccccc1)C1(Cc3ccccc3C1=O)C2c1ccccc1 (configuration not stated)	TGI	> 100 µM
COc1ccc(N=NC(=Nc2ccc(Cl)cc2)c2ccc(N(CCC#N)CCC#N)cc2)cc1	TGI	87.3 µM
CCn1c(-c2nonc2N)nc2c(C#CC(C)(C)O)ncc(OC[C@H]3CCCNC3)c21	TGI	28.6 µM
Oc1ccc(C2c3ccccc3Oc3ccccc32)c2cccnc12	TGI	> 100 µM
